Target: Dipeptidyl peptidase 4 (Homo sapiens, UniProt P27487)
Sequence (P27487 whole entry): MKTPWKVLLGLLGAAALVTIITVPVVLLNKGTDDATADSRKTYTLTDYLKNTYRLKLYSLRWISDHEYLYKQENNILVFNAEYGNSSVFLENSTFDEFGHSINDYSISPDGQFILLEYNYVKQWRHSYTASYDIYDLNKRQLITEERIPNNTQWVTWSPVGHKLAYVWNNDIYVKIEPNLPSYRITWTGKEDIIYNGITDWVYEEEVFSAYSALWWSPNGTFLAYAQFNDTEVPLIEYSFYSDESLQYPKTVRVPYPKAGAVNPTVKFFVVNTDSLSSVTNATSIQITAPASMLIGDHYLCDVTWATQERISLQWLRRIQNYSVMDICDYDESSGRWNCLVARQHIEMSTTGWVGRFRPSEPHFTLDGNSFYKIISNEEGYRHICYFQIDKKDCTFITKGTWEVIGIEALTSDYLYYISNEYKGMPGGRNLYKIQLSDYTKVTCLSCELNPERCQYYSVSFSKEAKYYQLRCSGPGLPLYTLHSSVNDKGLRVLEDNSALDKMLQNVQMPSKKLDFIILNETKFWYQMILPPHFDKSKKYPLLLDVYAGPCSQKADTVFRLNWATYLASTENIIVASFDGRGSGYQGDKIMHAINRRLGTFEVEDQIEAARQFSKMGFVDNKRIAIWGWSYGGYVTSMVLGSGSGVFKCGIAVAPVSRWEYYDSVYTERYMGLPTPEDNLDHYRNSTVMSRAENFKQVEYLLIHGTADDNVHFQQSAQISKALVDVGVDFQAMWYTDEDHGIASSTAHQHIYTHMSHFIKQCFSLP
Assay: Inhibition of DPP4 in human plasma assessed as formation of 7-amino-4-methylcoumarin from glycyl-L-proline 4-methylcoumaryl-7-amide by fluorescence assay
Experimental Endpoint: IC50 (nM)

                              line_notation  experimental_endpoint  endpoint_unit  test_result
0  CC[C@@]1(N)CCCN(c2cc3c(c(=O)n(C)c(=O)n3C)n2Cc2cc(F)ccc2C#N)C1                   IC50             nM           26

I = Cn1c(=O)c2c(cc(N3CCC[C@@](C)(N)C3)n2Cc2cc(F)ccc2C#N)n(C)c1=O
II = Cn1c(=O)c2c(cc(N3CCC[C@@H](N)C3)n2Cc2cc(F)ccc2C#N)n(C)c1=O
Which of the two gives a bigger number for IC50: I or II ? Return value: the label identifying the chosen record. I

* * *

Target chain: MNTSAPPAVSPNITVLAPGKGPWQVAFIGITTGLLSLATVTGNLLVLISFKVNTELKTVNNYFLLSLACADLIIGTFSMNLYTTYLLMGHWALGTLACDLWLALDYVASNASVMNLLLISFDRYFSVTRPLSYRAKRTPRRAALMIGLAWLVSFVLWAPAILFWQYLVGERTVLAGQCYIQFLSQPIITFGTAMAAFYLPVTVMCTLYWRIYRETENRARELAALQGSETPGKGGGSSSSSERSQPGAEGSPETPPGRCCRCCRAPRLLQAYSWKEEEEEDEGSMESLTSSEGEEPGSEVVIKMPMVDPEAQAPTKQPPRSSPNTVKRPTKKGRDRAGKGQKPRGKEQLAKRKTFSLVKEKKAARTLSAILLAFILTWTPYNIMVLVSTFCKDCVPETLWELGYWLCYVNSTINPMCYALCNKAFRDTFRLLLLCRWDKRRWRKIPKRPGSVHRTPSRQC
Experimental Endpoint: IC50

State the recorded IC50 for this entry: Cn1c(=O)c2c(cc(N3CCC[C@@](C)(N)C3)n2Cc2cc(F)ccc2C#N)n(C)c1=O > 10 µM

* * *

Experiment: Plasma protein binding in dog
Format: ADME, cell-free, Canis lupus familiaris
Conditions: read-out: PPB (converted)
Experimental Endpoint: fraction unbound
Please reply with the value in numeric form only.

If you can, please state the reported fraction unbound value of Cn1c(=O)c2c(cc(N3CCC[C@@](C)(N)C3)n2Cc2cc(F)ccc2C#N)n(C)c1=O . 0.41

* * *

Assay: Toxicity in monkey assessed as organ toxicity after 2 weeks repeated dosage
Type: organism-based, Macaca mulatta
Details: rhesus monkey, in vivo
Experimental Endpoint: NOAEL at 336 h (mg/kg/day)
Write the value in mg/kg/day as a bare number.

Which NOAEL at 336 h is reported for this compound? Cn1c(=O)c2c(cc(N3CCC[C@@](C)(N)C3)n2Cc2cc(F)ccc2C#N)n(C)c1=O 60

* * *

Assay: Plasma protein binding in human
Format: ADME, cell-free
Conditions: read-out: PPB (converted)
Experimental Endpoint: fraction unbound
I'd appreciate a reply containing only the number, no unit.

Param item = Cn1c(=O)c2c(cc(N3CCC[C@@](C)(N)C3)n2Cc2cc(F)ccc2C#N)n(C)c1=O ; retrieve measured fraction unbound. 0.27

* * *

Experiment: Oral bioavailability in dog at 3 mg/kg, po
Assay type: ADME, organism-based, Canis lupus familiaris
Settings: in vivo
Experimental Endpoint: bioavailability (%)
Report only the number, with the unit % understood.

Tell me the measured bioavailability of Cn1c(=O)c2c(cc(N3CCC[C@@](C)(N)C3)n2Cc2cc(F)ccc2C#N)n(C)c1=O , please. 91

* * *

Assay: Volume of distribution at steady state in monkey at 1 mg/kg, iv
Format: ADME, organism-based, Macaca mulatta
Parameters: dose 1 mg/kg, route intravenous
Conditions: rhesus monkey, in vivo, read-out: Vdss
Experimental Endpoint: Vd (L/kg)
# output: bare number, implied unit L/kg

Query (molecule): Cn1c(=O)c2c(cc(N3CCC[C@@](C)(N)C3)n2Cc2cc(F)ccc2C#N)n(C)c1=O ; field requested: Vd 10

* * *

Biological target: Xaa-Pro aminopeptidase 2 (Homo sapiens)
Sequence (O43895 whole entry): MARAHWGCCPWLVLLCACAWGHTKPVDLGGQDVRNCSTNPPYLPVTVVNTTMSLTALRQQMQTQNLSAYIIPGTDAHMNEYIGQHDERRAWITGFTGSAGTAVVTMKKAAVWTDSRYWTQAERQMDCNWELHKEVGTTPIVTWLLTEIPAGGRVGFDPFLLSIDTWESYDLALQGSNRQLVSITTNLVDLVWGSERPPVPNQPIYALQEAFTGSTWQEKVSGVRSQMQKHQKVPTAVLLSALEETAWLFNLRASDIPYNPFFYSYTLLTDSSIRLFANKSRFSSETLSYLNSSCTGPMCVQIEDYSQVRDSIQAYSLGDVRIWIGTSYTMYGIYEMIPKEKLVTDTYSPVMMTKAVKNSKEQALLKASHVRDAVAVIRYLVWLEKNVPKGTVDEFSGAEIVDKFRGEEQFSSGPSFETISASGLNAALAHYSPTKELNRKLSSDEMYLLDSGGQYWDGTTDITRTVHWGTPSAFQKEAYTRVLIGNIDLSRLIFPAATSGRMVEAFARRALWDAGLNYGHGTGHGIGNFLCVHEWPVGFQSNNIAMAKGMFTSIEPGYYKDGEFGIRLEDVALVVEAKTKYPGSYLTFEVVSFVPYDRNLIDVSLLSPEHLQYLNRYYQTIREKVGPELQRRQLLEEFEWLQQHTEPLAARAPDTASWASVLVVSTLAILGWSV
Experimental Endpoint: IC50

State the recorded IC50 for this entry: Cn1c(=O)c2c(cc(N3CCC[C@@](C)(N)C3)n2Cc2cc(F)ccc2C#N)n(C)c1=O > 50 µM

* * *

Molecular target: Prolyl endopeptidase FAP (Homo sapiens)
Sequence (Q12884 whole entry): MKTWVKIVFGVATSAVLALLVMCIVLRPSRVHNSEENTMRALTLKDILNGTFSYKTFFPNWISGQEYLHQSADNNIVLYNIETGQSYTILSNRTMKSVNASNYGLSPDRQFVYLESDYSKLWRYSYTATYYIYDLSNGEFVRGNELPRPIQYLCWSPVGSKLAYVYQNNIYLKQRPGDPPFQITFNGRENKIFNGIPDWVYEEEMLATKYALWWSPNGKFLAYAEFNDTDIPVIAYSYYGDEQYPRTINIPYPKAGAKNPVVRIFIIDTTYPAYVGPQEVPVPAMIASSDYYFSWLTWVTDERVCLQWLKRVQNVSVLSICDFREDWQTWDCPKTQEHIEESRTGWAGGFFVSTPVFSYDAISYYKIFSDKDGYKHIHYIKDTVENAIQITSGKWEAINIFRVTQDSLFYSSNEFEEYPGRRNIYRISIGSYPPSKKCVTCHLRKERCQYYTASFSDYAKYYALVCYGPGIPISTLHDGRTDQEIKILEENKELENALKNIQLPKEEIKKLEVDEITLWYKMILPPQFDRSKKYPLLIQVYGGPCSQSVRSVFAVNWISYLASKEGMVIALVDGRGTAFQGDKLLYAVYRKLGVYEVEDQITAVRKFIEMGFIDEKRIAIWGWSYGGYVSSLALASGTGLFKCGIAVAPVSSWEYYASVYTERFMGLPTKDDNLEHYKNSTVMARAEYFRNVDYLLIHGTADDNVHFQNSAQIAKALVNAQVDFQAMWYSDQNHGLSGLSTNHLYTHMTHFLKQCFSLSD
pIC50: −log10 of the molar value.
Experimental Endpoint: pIC50

Suppose we examine the compound Cn1c(=O)c2c(cc(N3CCC[C@@](C)(N)C3)n2Cc2cc(F)ccc2C#N)n(C)c1=O ; what pIC50 value has been reported? < 4.30

* * *

Test: Clearance in dog at 1 mg/kg, iv
Assay type: ADME, organism-based, Canis lupus familiaris
Set-up: dose 1 mg/kg, route intravenous
Conditions: in vivo
Experimental Endpoint: clearance (mL/min/kg)
Field: numeric (mL/min/kg). Do not append units.

Any idea what its clearance is? The compound is Cn1c(=O)c2c(cc(N3CCC[C@@](C)(N)C3)n2Cc2cc(F)ccc2C#N)n(C)c1=O 29

* * *

Test: Half life in monkey at 3 mg/kg, po
Format: ADME, organism-based, Macaca mulatta
Design: dose 3 mg/kg, route oral
Details: rhesus monkey, in vivo
Experimental Endpoint: half-life (h)
Give a bare numeral; the unit h is implied.

Dear colleague, I am looking for the recorded half-life of the following compound: Cn1c(=O)c2c(cc(N3CCC[C@@](C)(N)C3)n2Cc2cc(F)ccc2C#N)n(C)c1=O 15

* * *

Assay: Plasma protein binding in rat
Assay type: ADME, cell-free
Details: read-out: PPB (converted)
Experimental Endpoint: fraction unbound
# output: bare number, no unit

State the recorded fraction unbound for this entry: Cn1c(=O)c2c(cc(N3CCC[C@@](C)(N)C3)n2Cc2cc(F)ccc2C#N)n(C)c1=O 0.22

* * *

Assay: Half life in monkey at 1 mg/kg, iv
Format: ADME, organism-based, Macaca mulatta
Set-up: dose 1 mg/kg, route intravenous
Settings: rhesus monkey, in vivo
Experimental Endpoint: half-life (h)
Your answer is read as h, so omit the unit and give the number.

Give its half-life value. Item: Cn1c(=O)c2c(cc(N3CCC[C@@](C)(N)C3)n2Cc2cc(F)ccc2C#N)n(C)c1=O 4.8

* * *

Assay: Half life in rat at 1 mg/kg, iv
Format: ADME, organism-based
Parameters: dose 1 mg/kg, route intravenous
Conditions: in vivo
Experimental Endpoint: half-life (h)
Answer format: numeric, h implied, no suffix.

Report half-life for Cn1c(=O)c2c(cc(N3CCC[C@@](C)(N)C3)n2Cc2cc(F)ccc2C#N)n(C)c1=O please. 4.1

* * *

Biological target: Dipeptidyl peptidase 9 (Homo sapiens)
Sequence (Q86TI2 whole entry): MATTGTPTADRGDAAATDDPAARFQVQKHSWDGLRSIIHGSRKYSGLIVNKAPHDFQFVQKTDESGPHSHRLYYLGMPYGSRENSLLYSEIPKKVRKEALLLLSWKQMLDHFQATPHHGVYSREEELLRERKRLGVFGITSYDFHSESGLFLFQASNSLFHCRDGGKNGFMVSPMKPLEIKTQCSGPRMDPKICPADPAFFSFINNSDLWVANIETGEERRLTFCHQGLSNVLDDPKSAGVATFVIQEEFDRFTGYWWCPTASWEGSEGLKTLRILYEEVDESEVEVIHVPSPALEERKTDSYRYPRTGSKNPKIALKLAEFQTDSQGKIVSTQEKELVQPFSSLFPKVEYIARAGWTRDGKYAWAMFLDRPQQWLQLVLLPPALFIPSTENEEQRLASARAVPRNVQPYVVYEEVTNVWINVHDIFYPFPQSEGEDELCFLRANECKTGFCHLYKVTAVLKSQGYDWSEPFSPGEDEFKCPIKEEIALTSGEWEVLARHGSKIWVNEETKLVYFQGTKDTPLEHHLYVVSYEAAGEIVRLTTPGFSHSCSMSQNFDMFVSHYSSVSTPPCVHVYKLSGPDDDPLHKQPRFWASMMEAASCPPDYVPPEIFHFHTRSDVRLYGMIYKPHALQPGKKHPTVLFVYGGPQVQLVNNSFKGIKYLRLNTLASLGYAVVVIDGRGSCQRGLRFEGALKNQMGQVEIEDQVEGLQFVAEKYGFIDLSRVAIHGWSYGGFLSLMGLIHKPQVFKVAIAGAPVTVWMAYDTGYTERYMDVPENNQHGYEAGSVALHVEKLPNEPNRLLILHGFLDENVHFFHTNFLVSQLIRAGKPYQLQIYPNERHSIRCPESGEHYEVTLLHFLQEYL
Experimental Endpoint: IC50

Look at this compound and give its reported IC50. Cn1c(=O)c2c(cc(N3CCC[C@@](C)(N)C3)n2Cc2cc(F)ccc2C#N)n(C)c1=O > 50 µM

* * *

Experiment: Half life in dog at 1 mg/kg, iv
Format: ADME, organism-based, Canis lupus familiaris
Design: dose 1 mg/kg, route intravenous
Settings: in vivo
Experimental Endpoint: half-life (h)
// units = h; emit number, no label

Record request: half-life value, item Cn1c(=O)c2c(cc(N3CCC[C@@](C)(N)C3)n2Cc2cc(F)ccc2C#N)n(C)c1=O 3.1

* * *

Assay: Volume of distribution at steady state in rat at 1 mg/kg, iv
Type: ADME, organism-based
Set-up: dose 1 mg/kg, route intravenous
Conditions: in vivo, read-out: Vdss
Experimental Endpoint: Vd (L/kg)
Answer format: numeric, L/kg implied, no suffix.

For the compound shown here, Cn1c(=O)c2c(cc(N3CCC[C@@](C)(N)C3)n2Cc2cc(F)ccc2C#N)n(C)c1=O , give the reported Vd. 6.5

* * *

Assay: Volume of distribution at steady state in dog at 1 mg/kg, iv
Type: ADME, organism-based, Canis lupus familiaris
Design: dose 1 mg/kg, route intravenous
Settings: in vivo, read-out: Vdss
Experimental Endpoint: Vd (L/kg)
Quick reminder: number only, in L/kg, skip the unit.

Value lookup for Vd; key = Cn1c(=O)c2c(cc(N3CCC[C@@](C)(N)C3)n2Cc2cc(F)ccc2C#N)n(C)c1=O 5.8

* * *

Assay: Cmax in dog at 3 mg/kg, po
Type: ADME, organism-based, Canis lupus familiaris
Design: dose 3 mg/kg, route oral
Conditions: in vivo
Experimental Endpoint: Cmax (ng/mL)
API: value field is a number in ng/mL; no unit string.

Requested field: Cmax. Item: Cn1c(=O)c2c(cc(N3CCC[C@@](C)(N)C3)n2Cc2cc(F)ccc2C#N)n(C)c1=O 245

* * *

Assay: Half life in rat at 3 mg/kg, po
Format: ADME, organism-based
Set-up: dose 3 mg/kg, route oral
Details: in vivo
Experimental Endpoint: half-life (h)
The reply should contain only the number, in h.

What value of half-life has been recorded for this entry: Cn1c(=O)c2c(cc(N3CCC[C@@](C)(N)C3)n2Cc2cc(F)ccc2C#N)n(C)c1=O 3.3
